The measured values listed here are drawn from the supplement of paper PMC10567573.

B1: KLHL14 (parent)
chain: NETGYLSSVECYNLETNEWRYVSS

Variants of: B1
Experiment notes: protein stability index of a GFP-peptide fusion (GPS, HEK-293T) (PSI 1-6); higher = more stable;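 also: lentivirally expressed fusions sorted by FACS into six bins by GFP to DsRed ratio, PSI derived from sequencing read proportions per bin multiplied by bin number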
Test settings: c terminus: a fixed tail appended
Would you kindly list protein stability index for each of these variants?
One number for each entry.

Example cases with answers are listed next.
{"columns": ["Sequence code", "Result"],
 "data": [
  ["NETGYLSSVECYNKETNEWRYVSS", 3.99],
  ["NETGYLSSIECYNLETNEWRYVSS", 3.16],
  ["NETGYLSSVECYNLETNEWRYWSS", 2.22]
]}

Hello, I would appreciate it if you could give protein stability index for each entry below.
1. NETGYLSSVECYNLETNEWRYVES
2. NETGYLSSVECYNLETNEWRYVSA

output:
1: 3.68; 2: 4.1

// for each variant below, give its protein stability index
1. NETGYLSSVECYNLETNEWRLVSS
2. NETGYLSSVECYSLETNEWRYVSS

output:
3.1
2.69

Give protein stability index for all variants that follow.
1. NETGYLSSVECYNLETNEWRYVPS
2. NETGYLSSVECYNLETREWRYVSS
3. NETGYLSSVECYNLETEEWRYVSS
4. NETGYLSSVECYNLYTNEWRYVSS
5. NETGYISSVECYNLETNEWRYVSS

output:
3.39
3.01
4.2
2.15
3.24

Give measured protein stability index for every item shown.
1. EETGYLSSVECYNLETNEWRYVSS
2. NEYGYLSSVECYNLETNEWRYVSS

output:
1. 3.95
2. 3.21
